Test system: binding partner of C5A (XPA23)
Assay: Biacore K-off
Here the recorded log10 fold difference in affinity vs original is given for each entry.
Readout type: log10 fold difference in affinity vs original (log10 of the value in fold)

* C5A (XPA23) VH S30L (antibody, V domains shown) VH: EVQLLESGGGLVQPGGSLRLSCAASGFTFLKYFMFWVRQAPGKGLEWVSVISPSGGMTRYADSVKGRFTISRDNSKNTLYLQMNSLRAEDTAVYYCARVGYGGNSDYWGQGTLVTVSS VL: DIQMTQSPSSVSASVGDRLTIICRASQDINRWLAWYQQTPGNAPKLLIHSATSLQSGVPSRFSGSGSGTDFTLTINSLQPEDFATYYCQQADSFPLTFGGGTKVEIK | -0.04
* C5A (XPA23) VH Y32E (antibody, V domains shown) VH: EVQLLESGGGLVQPGGSLRLSCAASGFTFSKEFMFWVRQAPGKGLEWVSVISPSGGMTRYADSVKGRFTISRDNSKNTLYLQMNSLRAEDTAVYYCARVGYGGNSDYWGQGTLVTVSS VL: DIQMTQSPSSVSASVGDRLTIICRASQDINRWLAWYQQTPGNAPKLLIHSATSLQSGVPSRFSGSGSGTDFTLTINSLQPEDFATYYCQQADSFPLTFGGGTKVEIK | -0.92
* C5A (XPA23) VL A51V (antibody, V domains shown) VH: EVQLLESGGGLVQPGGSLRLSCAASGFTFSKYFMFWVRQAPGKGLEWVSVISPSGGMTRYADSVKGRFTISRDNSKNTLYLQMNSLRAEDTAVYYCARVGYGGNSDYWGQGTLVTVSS VL: DIQMTQSPSSVSASVGDRLTIICRASQDINRWLAWYQQTPGNAPKLLIHSVTSLQSGVPSRFSGSGSGTDFTLTINSLQPEDFATYYCQQADSFPLTFGGGTKVEIK | -0.51
* C5A (XPA23) VL A51R (antibody, V domains shown) VH: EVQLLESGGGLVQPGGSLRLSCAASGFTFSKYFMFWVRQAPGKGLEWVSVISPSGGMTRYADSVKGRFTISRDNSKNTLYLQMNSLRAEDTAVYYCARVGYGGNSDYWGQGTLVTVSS VL: DIQMTQSPSSVSASVGDRLTIICRASQDINRWLAWYQQTPGNAPKLLIHSRTSLQSGVPSRFSGSGSGTDFTLTINSLQPEDFATYYCQQADSFPLTFGGGTKVEIK | -0.74
* C5A (XPA23) VH F33D (antibody, V domains shown) VH: EVQLLESGGGLVQPGGSLRLSCAASGFTFSKYDMFWVRQAPGKGLEWVSVISPSGGMTRYADSVKGRFTISRDNSKNTLYLQMNSLRAEDTAVYYCARVGYGGNSDYWGQGTLVTVSS VL: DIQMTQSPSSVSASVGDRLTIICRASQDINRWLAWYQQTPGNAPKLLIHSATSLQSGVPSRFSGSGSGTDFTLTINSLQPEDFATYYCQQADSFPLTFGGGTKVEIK | -0.04
* C5A (XPA23) VL R31Q (antibody, V domains shown) VH: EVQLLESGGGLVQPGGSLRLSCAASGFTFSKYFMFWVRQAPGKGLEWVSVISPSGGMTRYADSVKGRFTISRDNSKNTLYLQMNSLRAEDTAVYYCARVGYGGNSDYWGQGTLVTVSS VL: DIQMTQSPSSVSASVGDRLTIICRASQDINQWLAWYQQTPGNAPKLLIHSATSLQSGVPSRFSGSGSGTDFTLTINSLQPEDFATYYCQQADSFPLTFGGGTKVEIK | -0.57
* C5A (XPA23) VL S53R (antibody, V domains shown) VH: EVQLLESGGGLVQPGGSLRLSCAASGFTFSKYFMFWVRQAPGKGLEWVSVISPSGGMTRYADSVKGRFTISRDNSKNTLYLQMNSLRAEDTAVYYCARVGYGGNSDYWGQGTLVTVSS VL: DIQMTQSPSSVSASVGDRLTIICRASQDINRWLAWYQQTPGNAPKLLIHSATRLQSGVPSRFSGSGSGTDFTLTINSLQPEDFATYYCQQADSFPLTFGGGTKVEIK | 0.52
* C5A (XPA23) VL S93L (antibody, V domains shown) VH: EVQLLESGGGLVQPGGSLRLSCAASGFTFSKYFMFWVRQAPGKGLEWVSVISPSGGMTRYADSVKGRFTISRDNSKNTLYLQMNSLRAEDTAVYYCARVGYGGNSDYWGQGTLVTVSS VL: DIQMTQSPSSVSASVGDRLTIICRASQDINRWLAWYQQTPGNAPKLLIHSATSLQSGVPSRFSGSGSGTDFTLTINSLQPEDFATYYCQQADLFPLTFGGGTKVEIK | 0.03
* C5A (XPA23) VL N30D (antibody, V domains shown) VH: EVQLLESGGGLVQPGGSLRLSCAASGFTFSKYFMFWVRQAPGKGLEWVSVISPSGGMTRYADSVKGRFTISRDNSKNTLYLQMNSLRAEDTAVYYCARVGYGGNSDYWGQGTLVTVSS VL: DIQMTQSPSSVSASVGDRLTIICRASQDIDRWLAWYQQTPGNAPKLLIHSATSLQSGVPSRFSGSGSGTDFTLTINSLQPEDFATYYCQQADSFPLTFGGGTKVEIK | -0.09
* C5A (XPA23) VL D28W (antibody, V domains shown) VH: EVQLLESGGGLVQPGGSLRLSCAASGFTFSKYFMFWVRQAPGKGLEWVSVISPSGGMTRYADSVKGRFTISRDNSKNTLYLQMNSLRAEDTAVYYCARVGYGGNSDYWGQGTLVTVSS VL: DIQMTQSPSSVSASVGDRLTIICRASQWINRWLAWYQQTPGNAPKLLIHSATSLQSGVPSRFSGSGSGTDFTLTINSLQPEDFATYYCQQADSFPLTFGGGTKVEIK | 0.58
